# target-of-assay: Recombinant full-length human IDO1 (Homo sapiens (Human), UniProt P14902)
# Sequence (P14902 whole entry): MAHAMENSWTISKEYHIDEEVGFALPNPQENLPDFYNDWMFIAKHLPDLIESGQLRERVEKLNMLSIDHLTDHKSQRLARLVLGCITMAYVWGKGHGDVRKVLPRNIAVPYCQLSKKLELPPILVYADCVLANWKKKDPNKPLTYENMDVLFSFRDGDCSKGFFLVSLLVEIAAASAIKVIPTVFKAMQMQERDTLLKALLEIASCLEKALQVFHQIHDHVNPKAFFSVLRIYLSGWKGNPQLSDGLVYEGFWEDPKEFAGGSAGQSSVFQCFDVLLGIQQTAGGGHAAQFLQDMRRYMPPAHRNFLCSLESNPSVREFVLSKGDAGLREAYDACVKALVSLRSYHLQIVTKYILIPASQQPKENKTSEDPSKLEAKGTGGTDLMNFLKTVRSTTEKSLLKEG
# test-description: IDO1 enzymatic assay (IDO inhibitory activity)
# Format: biochemical
# measurement-context: 2 nM enzyme, 5 μM L-tryptophan, pH6.5, 30 min pre-incubation, NFK quantified by LCMS; mean values if measured multiple times; read-out: hIDO activity (IC50 in nM)
parameter-measured: IC50 (nM)

Consider the reported IC50 for these compounds:
Cc1sc2cncn2c1C(O)CC1CCC(C)(C)CC1 (racemic) | 199
Cc1sc2cncn2c1C(O)C1CCC(C)(C)C1 (centres unmarked) | 81.2
OC(Cc1cccc2ccccc12)c1c(C2CC2)sc2cncn12 (racemic) | 325
COc1cccc(CC(O)c2c(C)sc3cncn23)c1 (racemic) | 3150
Cc1sc2cncn2c1C(O)C1CCCCC1 (racemic) | 134

a. CCc1sc2cncn2c1C(O)CC1CCC(C)(C)CC1 (racemic)
b. O[C@H](c1c(-c2ccccc2)sc2cncn12)C1CCCCC1 [Example 92a]
c. CCc1sc2cncn2c1C(O)C1(C)CCCC1 (racemic)
Form: Sort by [IC50] Order [ ascending ] Answer by listing the labels in the order asked for. c, a, b

1. CC1CCCCC1CC(O)c1c(C(F)(F)F)sc2cncn12 (centres unmarked)
2. OC(CC1CC2CCC1O2)c1c(C2CC2)sc2cncn12 (centres unmarked)
Compare IC50: is it lower for 1 or for 2 ? Your answer should be the label attached to the chosen record. 2
(2: 93.4 nM, 1: 165 nM)

I. OC(c1c(-c2ccsc2)sc2cncn12)C1CCCCC1 (racemic)
II. OC(c1cccs1)c1c(Br)sc2cncn12 (racemic)
III. O[C@H](c1c(C2CC2)sc2cncn12)C1CCCCC1
Form: Sort by [IC50] Order [ ascending ] Answer by listing the labels in the order asked for. III, II, I
(III: 7.5 nM, II: 63.4 nM, I: 144 nM)

1. OC(c1cccs1)c1c(C2CC2)sc2cncn12 (racemic)
2. Cc1sc2cncn2c1C(O)CC1CCC(c2ccccc2)C1 (centres unmarked)
Would you let me know which has the greater IC50 value, 1 or 2 ? Your answer should be the label attached to the chosen record. 2

I. C=Cc1sc2cncn2c1C(O)CC1CCCCC1 (centres unmarked)
II. Cc1sc2cncn2c1[C@@H](O)C1(C)CCCC1 [Example 140a]
III. CCc1ccc(C(O)c2c(C3CC3)sc3cncn23)cc1 (racemic)
IV. Cc1sc2cncn2c1C(O)c1cn(C2CCCC2)nn1 (racemic)
Returns the items ordered by IC50, from maximum to minimum. Answer by listing the labels in the order asked for. IV, III, II, I
(IV: 835 nM, III: 60.1 nM, II: 23.9 nM, I: 10.5 nM)

---

# target-of-assay: Recombinant human TDO comprising amino acids 19-407 (Homo sapiens (Human))
# test-description: TDO2 enzymatic assay (TDO inhibitory activity)
# Format: biochemical
# measurement-context: 15 nM enzyme, 200 μM L-tryptophan, pH7, 30 min pre-incubation, NFK quantified by LCMS; mean values if measured multiple times; read-out: hTDO activity (IC50 in nM)
parameter-measured: IC50 (nM)

Consider the reported IC50 for these molecules:
Cc1sc2cncn2c1C(O)C1CCC(C)(C)C1 (stereo not shown) | 412
OC(CC12CCC(CC1)C2)c1c(C2CC2)sc2cncn12 (racemic) | 177
CC(C)(C)c1sc2cncn2c1C(O)CC1CCCCC1 (racemic) | 2130
OC(CC1CCCCC1)c1c(C2CC(F)(F)C2)sc2cncn12 (racemic) | 1910
OC(c1c(Cc2ccccc2)sc2cncn12)C1CCCCC1 (racemic) | 4270

1. CCc1sc2cncn2c1C(O)CC1CCCC1 (racemic)
2. Cc1sc2cncn2c1C(O)C1CCN(c2ccccc2)CC1 (racemic)
3. CC1(C)CCC(CC(O)c2c(C3CC3)sc3cncn23)CC1 (racemic)
Form: Sort by [IC50] Order [ ascending ] Answer by listing the labels in the order asked for. 1, 3, 2

a. OC(Cc1cccc2ccccc12)c1c(C2CC2)sc2cncn12 (racemic)
b. OC(c1c([C@@H]2C[C@@H]2F)sc2cncn12)C1CCCCC1 (relative stereo)
Would you let me know which has the greater IC50 value, a or b ? Your answer should be the label attached to the chosen record. a
(a: 3510 nM, b: 491 nM)

---

# target-of-assay: Recombinant human TDO comprising amino acids 19-407 (Homo sapiens (Human))
# test-description: TDO2 enzymatic assay (TDO inhibitory activity)
# Format: biochemical
# measurement-context: 15 nM enzyme, 200 μM L-tryptophan, pH7, 30 min pre-incubation, NFK quantified by LCMS; mean values if measured multiple times; read-out: hTDO activity (IC50 in nM)
parameter-measured: IC50 (nM)

OC(CC1CCC(F)(F)CC1)c1c(C2CC2)sc2cncn12 (racemic) [Example 71] | 263
Cc1sc2cncn2c1[C@@H](O)CC1CCCCC1 [Example 5a] | 375
CC(C)C1CCC(C(O)c2c(C3CC3)sc3cncn23)CC1 (racemic) [Example 72] | 1470
CCC1CCC(CC(O)c2c(C3CC3)sc3cncn23)CC1 (racemic) [Example 142] | 2000
COc1ccc(C(O)c2c(C3CC3)sc3cncn23)cc1 (racemic) [Example 55] | 2270
OC(CC1CC2C=CC1C2)c1c(C2CC2)sc2cncn12 (centres unmarked) [Example 38] | 191
OC(c1c(Cl)sc2cncn12)C1CCCCC1 (racemic) [Example 13] | 172
OC(CC1CCC(C(F)F)CC1)c1c(C2CC2)sc2cncn12 (racemic) [Example 138] | 467

A. CCc1sc2cncn2c1C(O)C1(C)CCCC1 (racemic) [Example 172]
B. Cc1sc2cncn2c1C(O)CC1CCCC1 (racemic) [Example 183]
Would you let me know which has the greater IC50 value, A or B ? Your answer should be the label attached to the chosen record. B
(B: 573 nM, A: 28.7 nM)

---

# target-of-assay: Recombinant human TDO comprising amino acids 19-407 (Homo sapiens (Human), UniProt P48775)
# Sequence (P48775 19-406 limits assumed): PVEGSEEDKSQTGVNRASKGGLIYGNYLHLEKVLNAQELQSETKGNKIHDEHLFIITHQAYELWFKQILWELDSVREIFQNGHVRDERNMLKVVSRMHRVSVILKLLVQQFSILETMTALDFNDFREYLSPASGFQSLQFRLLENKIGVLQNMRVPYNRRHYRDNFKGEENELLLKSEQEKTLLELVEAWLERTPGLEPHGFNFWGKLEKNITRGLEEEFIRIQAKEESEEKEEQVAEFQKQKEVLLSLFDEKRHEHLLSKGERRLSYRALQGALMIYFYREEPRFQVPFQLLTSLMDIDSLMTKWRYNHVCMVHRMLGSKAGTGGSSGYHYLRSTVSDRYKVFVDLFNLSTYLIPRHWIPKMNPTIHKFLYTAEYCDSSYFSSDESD
# test-description: TDO2 enzymatic assay (TDO inhibitory activity)
# Type: biochemical
# measurement-context: 15 nM enzyme, 200 μM L-tryptophan, pH7, 30 min pre-incubation, NFK quantified by LCMS; mean values if measured multiple times; read-out: hTDO activity (IC50 in nM)
parameter-measured: IC50 (nM)

OC(c1c(C2CC2)sc2cncn12)C1CCC2(CCCC2)CC1 (racemic) | 746

A. OC(c1c(-c2ccccc2F)sc2cncn12)C1CCCCC1 (racemic)
B. CC1CCCC(CC(O)c2c(C(F)(F)F)sc3cncn23)C1 (stereo not drawn)
Compare IC50: is it lower for A or for B ? Your answer should be the label attached to the chosen record. A

a. COc1ccccc1C(O)c1c(C2CC2)sc2cncn12 (racemic)
b. CCc1sc2cncn2c1C(O)CC1CCC(C)(C)CC1 (racemic)
Compare IC50: is it lower for a or for b ? Your answer should be the label attached to the chosen record. b
(b: 1290 nM, a: 6800 nM)

I. CCc1sc2cncn2c1C(O)C1CC(C)(C)C1 (racemic)
II. OC(c1c(C2CC2)sc2cncn12)C1CCC(C2CCC2)CC1 (racemic)
Compare IC50: is it lower for I or for II ? Your answer should be the label attached to the chosen record. I

---

# target-of-assay: Recombinant human TDO comprising amino acids 19-407 (Homo sapiens (Human))
# test-description: TDO2 enzymatic assay (TDO inhibitory activity)
# Type: biochemical
# measurement-context: hTDO activity (IC50 in nM), 15 nM enzyme, 200 μM L-tryptophan, pH7, 30 min pre-incubation, NFK quantified by LCMS; mean values if measured multiple times
parameter-measured: IC50 (nM)
Write down the numeric answer in nM and omit the unit.

Given OC(c1c(C2CC2)sc2cncn12)[C@H]1C[C@@H]2CC[C@H]1C2 (relative stereo) [Example 20] , state its recorded IC50. 190

---

# target-of-assay: Recombinant human TDO comprising amino acids 19-407 (Homo sapiens (Human))
# test-description: TDO2 enzymatic assay (TDO inhibitory activity)
# Format: biochemical
# measurement-context: 15 nM enzyme, 200 μM L-tryptophan, pH7, 30 min pre-incubation, NFK quantified by LCMS; mean values if measured multiple times; read-out: hTDO activity (IC50 in nM)
parameter-measured: IC50 (nM)

OC(c1c(C2CC2)sc2cncn12)C1CC2CCCC2C1 (stereo not shown) | 259
OC(CC1CCCCC1)c1c(C(F)(F)F)sc2cncn12 (racemic) | 3180
COC1CCCC(C(O)c2c(C3CC3)sc3cncn23)C1 (stereo not shown) | 1850
OC(CC1CCCCC1)c1c(C2CCCC2)sc2cncn12 (racemic) | 277
OC(c1c(-c2cccnc2)sc2cncn12)C1CCCCC1 (racemic) | 881
Cc1sc2cncn2c1[C@@H](O)C1(C)CCCC1 [Example 140a] | 15.8
OC(CC1CCCCCC1)c1c(C2CC2)sc2cncn12 (racemic) | 470
CC1(C)CC[C@@H]([C@H](O)c2c(C3CC3)sc3cncn23)C1 [Example 47a] | 328
OC(c1cccc(F)c1)c1c(C2CC2)sc2cncn12 (racemic) | 449
OC(c1cccs1)c1c(Cl)sc2cncn12 (racemic) | 690

A. CC1CCCCC1CC(O)c1c(C2CC2)sc2cncn12 (stereo not shown)
B. OC(c1c(Br)sc2cncn12)C1CCCCC1 (racemic)
Would you let me know which has the greater IC50 value, A or B ? Your answer should be the label attached to the chosen record. A
(A: 411 nM, B: 218 nM)

I. CC1(C(O)c2c(C3CC3)sc3cncn23)CCCCCC1 (racemic)
II. OC(c1ccc(Cl)cc1)c1c(C2CC2)sc2cncn12 (racemic)
III. OC(c1c(-c2ccsc2)sc2cncn12)C1CCCCC1 (racemic)
Returns the items ordered by IC50, from maximum to minimum. Answer by listing the labels in the order asked for. II, I, III
(II: 1090 nM, I: 310 nM, III: 181 nM)
